Tested on: CD4+ T-cells and dendritic cells
Test: I-MUNE assay: CD4+ T-cell proliferation to 15-mer peptide sets presented by dendritic cells
Assay type: cell-based, human
Conditions: Table 3; SI>2.95
Protocol: All peptides were obtained from a commercial source (Mimotopes, San Diego, C-A). […] Monocytes were purified by adherence to plastic in AIM V medium (Gibco/Life Technologies). […] Treated dendritic cells were dislodged with 50 mM EDTA in PBS, washed in AIM V medium, counted, and resuspended in AIM V media at 2×10^5 cells/ml. […] For each individual buffy coat sample, the average CPM values obtained in the I-MUNE® assay for all of the peptides were analyzed. […]
readout_name: Response/Peptide

Worked examples, 2 molecules total:
molecule	Response/Peptide
ALCALASE ®: ALCALASE® enzyme, commercially available from Novo, Swissprot accession number P00780 (protein, UniProt P00780 106-379, looked up) Subtilisin Carlsberg: AQTVPYGIPLIKADKVQAQGFKGANVKVAVLDTGIQASHPDLNVVGGASFVAGEAYNTDGNGHGTHVAGTVAALDNTTGVLGVAPSVSLYAVKVLNSSGSGSYSGIVSGIEWATTNGMDVINMSLGGASGSTAMKQAVDNAYAKGVVVVAAAGNSGSSGNTNTIGYPAKYDSVIAVGAVDSNSNRASFSSVGAELEVMAPGAGVYSTYPTNTYATLNGTSMASPHVAGAAALILSKHPNLSASQVRNRLSSTATYLGSSFYYGKGLINVEAAAQ	2.16
BPN′ Y217L: B. amyloliquifaciens subtilisin BPN′ Y217L, Swissprot accession number P00782 (protein, UniProt P00782 108-382, looked up, variant Y217L) Subtilisin BPN': AQSVPYGVSQIKAPALHSQGYTGSNVKVAVIDSGIDSSHPDLKVAGGASMVPSETNPFQDNNSHGTHVAGTVAALNNSIGVLGVAPSASLYAVKVLGADGSGQYSWIINGIEWAIANNMDVINMSLGGPSGSAALKAAVDKAVASGVVVVAAAGNEGTSGSSSTVGYPGKYPSVIAVGAVDSSNQRASFSSVGPELDVMAPGVSIQSTLPGNKYGALNGTSMASPHVAGAAALILSKHPNWTNTQVRSSLENTTTKLGDSFYYGKGLINVQAAAQ	3.61

With those in mind, consider the next molecule.
Ask: Entry under review: sTNFR1: soluble tumor necrosis factor receptor 1 (protein, UniProt P19438 30-211, looked up, extracellular domain) extracellular domain: LVPHLGDREKRDSVCPQGKYIHPQNNSICCTKCHKGTYLYNDCPGPGQDTDCRECESGSFTASENHLRHCLSCSKCRKEMGQVEISSCTVDRDTVCGCRKNQYRHYWSENLFQCFNCSLCLNGTVHLSCQEKQNTVCTCHAGFFLRENECVSCSNCKKSLECTKLCLPQIENVKGTEDSGTT . Reported Response/Peptide?
Result: 2.9

All values here come from patent US20080220450A1.
